target: human GRP receptor (human, UniProt P30550 1-384); assay: cell-based or functional assay
Sequence (P30550 whole entry): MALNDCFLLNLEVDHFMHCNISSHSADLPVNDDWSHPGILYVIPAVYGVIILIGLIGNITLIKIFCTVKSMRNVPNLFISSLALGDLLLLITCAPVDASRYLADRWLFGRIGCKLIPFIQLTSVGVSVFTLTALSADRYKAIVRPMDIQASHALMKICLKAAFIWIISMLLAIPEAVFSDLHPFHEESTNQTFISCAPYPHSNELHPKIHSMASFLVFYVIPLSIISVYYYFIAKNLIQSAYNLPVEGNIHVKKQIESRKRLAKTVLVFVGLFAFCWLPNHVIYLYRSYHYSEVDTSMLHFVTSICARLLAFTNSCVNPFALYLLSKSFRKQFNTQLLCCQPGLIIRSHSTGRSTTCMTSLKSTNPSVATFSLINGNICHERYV
Starred links: 1 amine or outer side, 2 acyl side, 3 side chain; linkers in the order of their positions; H or OH if unused. Non-standard residues stand in square brackets, D forms with d. *: point of attachment. Trp(7-Me) = Cc1cccc2c(C[C@H](N)C(=O)O)c[nH]c12; C18 diacid = O=C(O)CCCCCCCCCCCCCCCCC(=O)*; γGlu = O=C(O)[C@H](CCC(=O)[*:2])N[*:1]; Nle = CCCC[C@H](N)C(=O)O; AEEA = NCCOCCOCC(=O)O
I'd be grateful if you could share measured hIP1 GRPR EC50 for these entries.
Answers are plain numbers, in nM.

{"columns": ["BINDER", "hIP1 GRPR EC50 (nM)"],
 "data": [
  ["{C18 diacid}-[dE][AEEA][AEEA]GNH[Trp(7-Me)]AV[dA]HL[Nle]-NH2 (SMILES CCCC[C@H](NC(=O)[C@H](CC(C)C)NC(=O)[C@H](Cc1c[nH]cn1)NC(=O)[C@@H](C)NC(=O)[C@@H](NC(=O)[C@H](C)NC(=O)[C@H](Cc1c[nH]c2c(C)cccc12)NC(=O)[C@H](Cc1c[nH]cn1)NC(=O)[C@H](CC(N)=O)NC(=O)CNC(=O)COCCOCCNC(=O)COCCOCCNC(=O)[C@@H](CCC(=O)O)NC(=O)CCCCCCCCCCCCCCCCC(=O)O)C(C)C)C(N)=O) [Peptide 46]", 9.9]
]}

Now consider a different binder.
// hIP1 GRPR EC50 lookup, key: {C18 diacid}-[γGlu][AEEA][AEEA]GNHWAV[dA]HL[Nle]-NH2 (SMILES CCCC[C@H](NC(=O)[C@H](CC(C)C)NC(=O)[C@H](Cc1c[nH]cn1)NC(=O)[C@@H](C)NC(=O)[C@@H](NC(=O)[C@H](C)NC(=O)[C@H](Cc1c[nH]c2ccccc12)NC(=O)[C@H](Cc1c[nH]cn1)NC(=O)[C@H](CC(N)=O)NC(=O)CNC(=O)COCCOCCNC(=O)COCCOCCNC(=O)CC[C@H](NC(=O)CCCCCCCCCCCCCCCCC(=O)O)C(=O)O)C(C)C)C(N)=O) [Peptide 97] 8.91
